# study system: human P450 11A1 (Homo sapiens, UniProt P05108)
# Sequence (P05108 41-521 limits assumed): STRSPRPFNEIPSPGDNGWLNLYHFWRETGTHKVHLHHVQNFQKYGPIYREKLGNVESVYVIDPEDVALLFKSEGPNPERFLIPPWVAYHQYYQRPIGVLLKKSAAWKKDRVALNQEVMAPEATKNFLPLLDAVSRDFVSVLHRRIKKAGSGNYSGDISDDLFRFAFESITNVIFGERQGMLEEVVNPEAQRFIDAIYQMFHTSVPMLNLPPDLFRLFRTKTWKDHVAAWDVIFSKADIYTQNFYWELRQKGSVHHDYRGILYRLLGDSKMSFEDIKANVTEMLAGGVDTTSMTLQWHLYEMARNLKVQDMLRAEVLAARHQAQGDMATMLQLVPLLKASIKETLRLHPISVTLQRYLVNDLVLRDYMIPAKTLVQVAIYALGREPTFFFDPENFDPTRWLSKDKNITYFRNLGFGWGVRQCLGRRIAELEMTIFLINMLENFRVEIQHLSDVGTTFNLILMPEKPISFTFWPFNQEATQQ
# Sequence (P00257 59-186 partner): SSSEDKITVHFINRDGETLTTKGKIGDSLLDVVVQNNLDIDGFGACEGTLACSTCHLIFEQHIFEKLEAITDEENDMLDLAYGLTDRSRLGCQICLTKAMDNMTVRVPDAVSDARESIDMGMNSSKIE
# assay remarks: Single-turnover kinetics of P450 11A1 with [1,2-3H]-cholesterol (radio-HPLC)
# Format: biochemical
# Set-up: M A S T R S P R P F N E I P S P G D N; Met-Ala (N-terminal start residues in place of the transit peptide and Ile40) (N); made in house; host or cells: E. coli (P450 11A1 in C41(DE3); Adx and AdR in E. coli)
# settings: 10-fold excess (high) Adx, time 30 s
result type: concentration in single-turnover reaction (µM)
Numbers only, in µM.

Here are 3 molecules together with their reported answers.
{"molecule": "CC(C)CCC[C@@H](C)[C@H]1CC[C@H]2[C@@H]3CC=C4C[C@@H](O)CC[C@]4(C)[C@H]3CC[C@]12C", "number": 0.6054}
{"molecule": "CC(C)CC[C@@H](O)[C@](C)(O)[C@H]1CC[C@H]2[C@@H]3CC=C4C[C@@H](O)CC[C@]4(C)[C@H]3CC[C@]12C [20R,22R-(OH)2 Chol, (20R,22R)-Cholest-5-ene-3β,20,22-triol]", "number": 0.03422}
{"molecule": "CC(=O)[C@H]1CC[C@H]2[C@@H]3CC=C4C[C@@H](O)CC[C@]4(C)[C@H]3CC[C@]12C", "number": 3.763}

Task: Endpoint output: concentration in single-turnover reaction of CC(C)CC[C@@H](O)[C@@H](C)[C@H]1CC[C@H]2[C@@H]3CC=C4C[C@@H](O)CC[C@]4(C)[C@H]3CC[C@]12C [22R-OH Chol, 22R-hydroxycholesterol] . Value?
Result: 0.09739

###

Would you mind telling me the reported Kd of each entry?
# study system: human P450 11A1 (Homo sapiens)
# Construct: M A S T R S P R P F N E I P S P G D N; Met-Ala (N-terminal start residues in place of the transit peptide and Ile40) (N); made in house; host or cells: E. coli C41(DE3) with GroES/GroEL, vector pET23C(+)
# assay remarks: Steady-state spectral (type I) binding titration, Kd determination
# settings: 0.10 μM P450 11A1, 10 cm cuvette, without Adx, quadratic fit; read-out: Kd, (−) Adx
Numbers only, in nM.

{"compound": "CC(C)CC[C@@H](O)[C@](C)(O)[C@H]1CC[C@H]2[C@@H]3CC=C4C[C@@H](O)CC[C@]4(C)[C@H]3CC[C@]12C [20R,22R-(OH)2 Chol, (20R,22R)-Cholest-5-ene-3β,20,22-triol]", "units": "nM", "Kd": 30}

I'm hoping you can list Kd for every compound here, please.
1. CC(C)CCC[C@@H](C)[C@H]1CC[C@H]2[C@@H]3CC=C4C[C@@H](O)CC[C@]4(C)[C@H]3CC[C@]12C
2. CC(=O)[C@H]1CC[C@H]2[C@@H]3CC=C4C[C@@H](O)CC[C@]4(C)[C@H]3CC[C@]12C

Result:
1. 120
2. 480

Task: Endpoint output: Kd of CC(C)CC[C@H](O)[C@](C)(O)[C@H]1CC[C@H]2[C@@H]3CC=C4C[C@@H](O)CC[C@]4(C)[C@H]3CC[C@]12C [20R,22S-(OH)2 Chol, (20R,22S)-Cholest-5-ene 3β,20,22-triol] . Value?
Result: 120

###

# study system: human P450 11A1 (Homo sapiens)
# assay remarks: Single-turnover kinetics of P450 11A1 with [1,2-3H]-cholesterol (radio-HPLC)
# Type: biochemical
# Parameters: M A S T R S P R P F N E I P S P G D N; Met-Ala (N-terminal start residues in place of the transit peptide and Ile40) (N); made in house; host or cells: E. coli (P450 11A1 in C41(DE3); Adx and AdR in E. coli)
# settings: 10-fold excess (high) Adx, time 1 s
# Procedure: In this reaction, a 5 μM complex of P450 11A1 and 4.5 μM cholesterol was assembled, and Adx was added at either equimolar (low, 5 μM) or 10-fold excess (high, 50 μM) concentrations (along with 10 μM AdR). The complex was diluted 2-fold (with 5 mM NADPH) in the apparatus to initiate the reaction, which was quenched at variable times. The products of the reaction were extracted and quantified by radio-HPLC. […] (The analysis of kinetic modeling is described below.) […]
Would you mind telling me the reported concentration in single-turnover reaction of each entry?
One number for each entry, in µM.

{"compound": "CC(C)CCC[C@@H](C)[C@H]1CC[C@H]2[C@@H]3CC=C4C[C@@H](O)CC[C@]4(C)[C@H]3CC[C@]12C", "study system": "human P450 11A1 (Homo sapiens)", "number": 3.748}
{"compound": "CC(C)CC[C@@H](O)[C@](C)(O)[C@H]1CC[C@H]2[C@@H]3CC=C4C[C@@H](O)CC[C@]4(C)[C@H]3CC[C@]12C [20R,22R-(OH)2 Chol, (20R,22R)-Cholest-5-ene-3β,20,22-triol]", "study system": "human P450 11A1 (Homo sapiens)", "number": 0.2278}
{"compound": "CC(=O)[C@H]1CC[C@H]2[C@@H]3CC=C4C[C@@H](O)CC[C@]4(C)[C@H]3CC[C@]12C", "study system": "human P450 11A1 (Homo sapiens)", "number": 0.3142}

Continue with the next compound.
Task: Endpoint output: concentration in single-turnover reaction of CC(C)CC[C@@H](O)[C@@H](C)[C@H]1CC[C@H]2[C@@H]3CC=C4C[C@@H](O)CC[C@]4(C)[C@H]3CC[C@]12C [22R-OH Chol, 22R-hydroxycholesterol] . Value?
Result: 0.2098

###

# study system: human P450 11A1 (Homo sapiens, UniProt P05108)
# assay remarks: Single-turnover kinetics of P450 11A1 with [1,2-3H]-cholesterol (radio-HPLC)
# Type: biochemical
# Set-up: M A S T R S P R P F N E I P S P G D N; Met-Ala (N-terminal start residues in place of the transit peptide and Ile40) (N); made in house; host or cells: E. coli (P450 11A1 in C41(DE3); Adx and AdR in E. coli)
# settings: second table, headed 10-fold excess (high) Adx, time 75 s
Would you mind telling me the reported concentration in single-turnover reaction of each entry?
Give bare numbers, in µM.

I'm hoping you can list concentration in single-turnover reaction for every molecule here, please.
1. CC(C)CC[C@@H](O)[C@](C)(O)[C@H]1CC[C@H]2[C@@H]3CC=C4C[C@@H](O)CC[C@]4(C)[C@H]3CC[C@]12C [20R,22R-(OH)2 Chol, (20R,22R)-Cholest-5-ene-3β,20,22-triol]
2. CC(C)CCC[C@@H](C)[C@H]1CC[C@H]2[C@@H]3CC=C4C[C@@H](O)CC[C@]4(C)[C@H]3CC[C@]12C [Cholesterol]
3. CC(=O)[C@H]1CC[C@H]2[C@@H]3CC=C4C[C@@H](O)CC[C@]4(C)[C@H]3CC[C@]12C [Pregnenolone]
4. CC(C)CC[C@@H](O)[C@@H](C)[C@H]1CC[C@H]2[C@@H]3CC=C4C[C@@H](O)CC[C@]4(C)[C@H]3CC[C@]12C [22R-OH Chol, 22R-hydroxycholesterol]

Result:
[0.04787, 0.3322, 4.057, 0.06255]

###

Would you mind telling me the reported concentration in single-turnover reaction of each entry?
# study system: human P450 11A1 (Homo sapiens)
# Sequence (P05108 41-521 limits assumed): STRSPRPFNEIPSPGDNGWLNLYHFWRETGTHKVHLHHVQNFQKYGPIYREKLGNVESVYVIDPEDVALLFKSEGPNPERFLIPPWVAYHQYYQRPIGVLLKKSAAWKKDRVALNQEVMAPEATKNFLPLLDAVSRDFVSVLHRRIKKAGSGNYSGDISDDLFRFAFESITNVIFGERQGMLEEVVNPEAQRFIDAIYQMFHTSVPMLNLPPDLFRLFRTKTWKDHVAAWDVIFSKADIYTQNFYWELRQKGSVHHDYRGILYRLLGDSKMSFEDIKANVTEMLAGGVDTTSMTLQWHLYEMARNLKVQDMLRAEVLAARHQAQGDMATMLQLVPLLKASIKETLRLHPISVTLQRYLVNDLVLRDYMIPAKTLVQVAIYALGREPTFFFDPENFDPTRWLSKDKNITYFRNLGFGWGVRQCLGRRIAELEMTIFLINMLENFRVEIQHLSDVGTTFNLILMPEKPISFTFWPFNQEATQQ
# Sequence (P00257 59-186 partner): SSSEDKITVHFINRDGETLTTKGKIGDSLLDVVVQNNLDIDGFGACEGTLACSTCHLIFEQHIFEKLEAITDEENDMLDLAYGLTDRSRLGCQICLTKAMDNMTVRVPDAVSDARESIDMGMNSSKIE
# assay remarks: Single-turnover kinetics of P450 11A1 with [1,2-3H]-cholesterol (radio-HPLC)
# Assay type: biochemical
# Parameters: M A S T R S P R P F N E I P S P G D N; Met-Ala (N-terminal start residues in place of the transit peptide and Ile40) (N); made in house; host or cells: E. coli (P450 11A1 in C41(DE3); Adx and AdR in E. coli)
# settings: 10-fold excess (high) Adx, time 3.5 s
Answers are plain numbers, in µM.

Here are 3 molecules together with their reported answers.
{"molecule": "CC(C)CCC[C@@H](C)[C@H]1CC[C@H]2[C@@H]3CC=C4C[C@@H](O)CC[C@]4(C)[C@H]3CC[C@]12C [Cholesterol]", "number": 3.113}
{"molecule": "CC(C)CC[C@@H](O)[C@](C)(O)[C@H]1CC[C@H]2[C@@H]3CC=C4C[C@@H](O)CC[C@]4(C)[C@H]3CC[C@]12C [20R,22R-(OH)2 Chol, (20R,22R)-Cholest-5-ene-3β,20,22-triol]", "number": 0.184}
{"molecule": "CC(=O)[C@H]1CC[C@H]2[C@@H]3CC=C4C[C@@H](O)CC[C@]4(C)[C@H]3CC[C@]12C [Pregnenolone]", "number": 1.037}

Continue with the next molecule.
Task: Endpoint output: concentration in single-turnover reaction of CC(C)CC[C@@H](O)[C@@H](C)[C@H]1CC[C@H]2[C@@H]3CC=C4C[C@@H](O)CC[C@]4(C)[C@H]3CC[C@]12C [22R-OH Chol, 22R-hydroxycholesterol] . Value?
Result: 0.1652
